Would you kindly list Kd for each of these compounds?
Tested System: S100A4 (Homo sapiens, UniProt P26447)
Construct: made in house; host or cells: Escherichia coli BL21(DE3)
Sequence (P26447 whole entry): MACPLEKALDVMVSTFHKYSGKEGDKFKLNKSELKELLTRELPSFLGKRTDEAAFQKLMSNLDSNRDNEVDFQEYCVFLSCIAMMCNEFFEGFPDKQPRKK
Method: Pull-down assay with immobilized protein and LSM libraries
Type: binding
Experimental Context: H14 library; 1:1 binding assumed; read-out: Surface mapping KD (apparent)

CC[C@H](C)[C@@H](CC(=O)N[C@H]1CCCC[C@@H]1C(N)=O)NC(=O)[C@H]1CCCC[C@@H]1NC(=O)[C@H]1CCCC[C@@H]1NC(=O)C[C@@H](NC(=O)[C@H]1CCCC[C@@H]1N)[C@@H](C)O tested on S100A4 (Homo sapiens, UniProt P26447) gave Kd: 7 µM

CC(C)C[C@@H](CC(=O)N[C@H]1CCCC[C@@H]1C(N)=O)NC(=O)[C@H]1CCCC[C@@H]1NC(=O)[C@H]1CCCC[C@@H]1NC(=O)C[C@H](CC(C)C)NC(=O)[C@H]1CCCC[C@@H]1N tested on S100A4 (Homo sapiens, UniProt P26447) gave Kd: 1 µM

CC[C@H](C)[C@@H](CC(=O)N[C@H]1CCCC[C@@H]1C(=O)N[C@H]1CCCC[C@@H]1C(=O)N[C@@H](CO)CC(=O)N[C@H]1CCCC[C@@H]1C(N)=O)NC(=O)[C@H]1CCCC[C@@H]1N tested on S100A4 (Homo sapiens, UniProt P26447) gave Kd: 79 µM

CC(C)C[C@@H](CC(=O)N[C@H]1CCCC[C@@H]1C(=O)N[C@H]1CCCC[C@@H]1C(=O)N[C@@H](CC(N)=O)CC(=O)N[C@H]1CCCC[C@@H]1C(N)=O)NC(=O)[C@H]1CCCC[C@@H]1N tested on S100A4 (Homo sapiens, UniProt P26447) gave Kd: 433 µM

NCCCC[C@@H](CC(=O)N[C@H]1CCCC[C@@H]1C(=O)N[C@H]1CCCC[C@@H]1C(=O)N[C@H](CC(=O)N[C@H]1CCCC[C@@H]1C(N)=O)Cc1ccccc1)NC(=O)[C@H]1CCCC[C@@H]1N tested on S100A4 (Homo sapiens, UniProt P26447) gave Kd: 102 µM

CC[C@H](C)[C@@H](CC(=O)N[C@H]1CCCC[C@@H]1C(=O)N[C@H]1CCCC[C@@H]1C(=O)N[C@H](CC(=O)N[C@H]1CCCC[C@@H]1C(N)=O)Cc1ccc(O)cc1)NC(=O)[C@H]1CCCC[C@@H]1N tested on S100A4 (Homo sapiens, UniProt P26447) gave Kd: 20 µM

CSCC[C@@H](CC(=O)N[C@H]1CCCC[C@@H]1C(N)=O)NC(=O)[C@H]1CCCC[C@@H]1NC(=O)[C@H]1CCCC[C@@H]1NC(=O)C[C@H](CCCCN)NC(=O)[C@H]1CCCC[C@@H]1N tested on S100A4 (Homo sapiens, UniProt P26447) gave Kd: 95 µM

CC[C@H](C)[C@@H](CC(=O)N[C@H]1CCCC[C@@H]1C(=O)N[C@H]1CCCC[C@@H]1C(=O)N[C@@H](C)CC(=O)N[C@H]1CCCC[C@@H]1C(N)=O)NC(=O)[C@H]1CCCC[C@@H]1N tested on S100A4 (Homo sapiens, UniProt P26447) gave Kd: 7 µM

CSCC[C@@H](CC(=O)N[C@H]1CCCC[C@@H]1C(N)=O)NC(=O)[C@H]1CCCC[C@@H]1NC(=O)[C@H]1CCCC[C@@H]1NC(=O)C[C@@H](NC(=O)[C@H]1CCCC[C@@H]1N)C(C)C tested on S100A4 (Homo sapiens, UniProt P26447) gave Kd: 5 µM

CC(C)[C@@H](CC(=O)N[C@H]1CCCC[C@@H]1C(=O)N[C@H]1CCCC[C@@H]1C(=O)N[C@@H](C)CC(=O)N[C@H]1CCCC[C@@H]1C(N)=O)NC(=O)[C@H]1CCCC[C@@H]1N tested on S100A4 (Homo sapiens, UniProt P26447) gave Kd: 35 µM

CSCC[C@@H](CC(=O)N[C@H]1CCCC[C@@H]1C(=O)N[C@H]1CCCC[C@@H]1C(=O)N[C@H](CC(=O)N[C@H]1CCCC[C@@H]1C(N)=O)C(C)C)NC(=O)[C@H]1CCCC[C@@H]1N tested on S100A4 (Homo sapiens, UniProt P26447) gave Kd: 21 µM

###

Tested System: CaM (Bos taurus)
Construct: made in house; host or cells: E. coli BL21 (DE3)
Method: Pull-down assay with immobilized protein and LSM libraries
Type: binding, bovine
Experimental Context: H14 library; 1:2 stoichiometry assumed; read-out: Surface mapping KD (apparent)
Binary call on Kd with cut-off 100 µM: strictly below means Criterion met, and equality or higher means Criterion not met.

In the record for CC[C@H](C)[C@@H](CC(=O)N[C@H]1CCCC[C@@H]1C(N)=O)NC(=O)[C@H]1CCCC[C@@H]1NC(=O)[C@H]1CCCC[C@@H]1NC(=O)C[C@@H](NC(=O)[C@H]1CCCC[C@@H]1N)C(C)C , is Kd less than 100 µM?
Criterion met

In the record for C[C@@H](CC(=O)N[C@H]1CCCC[C@@H]1C(=O)N[C@H]1CCCC[C@@H]1C(=O)N[C@H](CC(=O)N[C@H]1CCCC[C@@H]1C(N)=O)Cc1ccc(O)cc1)NC(=O)[C@H]1CCCC[C@@H]1N , is Kd less than 100 µM?
Criterion not met

In the record for NCCCC[C@@H](CC(=O)N[C@H]1CCCC[C@@H]1C(N)=O)NC(=O)[C@H]1CCCC[C@@H]1NC(=O)[C@H]1CCCC[C@@H]1NC(=O)C[C@H](CCC(N)=O)NC(=O)[C@H]1CCCC[C@@H]1N , is Kd less than 100 µM?
Criterion met

In the record for NC(=O)[C@H]1CCCC[C@@H]1NC(=O)C[C@H](Cc1c[nH]c2ccccc12)NC(=O)[C@H]1CCCC[C@@H]1NC(=O)[C@H]1CCCC[C@@H]1NC(=O)C[C@H](Cc1c[nH]c2ccccc12)NC(=O)[C@H]1CCCC[C@@H]1N , is Kd less than 100 µM?
Criterion met

In the record for CC[C@H](C)[C@@H](CC(=O)N[C@H]1CCCC[C@@H]1C(N)=O)NC(=O)[C@H]1CCCC[C@@H]1NC(=O)[C@H]1CCCC[C@@H]1NC(=O)C[C@H](CCSC)NC(=O)[C@H]1CCCC[C@@H]1N , is Kd less than 100 µM?
Criterion met

In the record for C[C@@H](O)[C@@H](CC(=O)N[C@H]1CCCC[C@@H]1C(N)=O)NC(=O)[C@H]1CCCC[C@@H]1NC(=O)[C@H]1CCCC[C@@H]1NC(=O)C[C@@H](NC(=O)[C@H]1CCCC[C@@H]1N)[C@@H](C)O , is Kd less than 100 µM?
Criterion not met

In the record for CC(C)C[C@@H](CC(=O)N[C@H]1CCCC[C@@H]1C(=O)N[C@H]1CCCC[C@@H]1C(=O)N[C@H](CC(=O)N[C@H]1CCCC[C@@H]1C(N)=O)[C@@H](C)O)NC(=O)[C@H]1CCCC[C@@H]1N , is Kd less than 100 µM?
Criterion met

In the record for NC(=O)[C@H]1CCCC[C@@H]1NC(=O)C[C@H](CC(=O)O)NC(=O)[C@H]1CCCC[C@@H]1NC(=O)[C@H]1CCCC[C@@H]1NC(=O)C[C@H](Cc1c[nH]c2ccccc12)NC(=O)[C@H]1CCCC[C@@H]1N , is Kd less than 100 µM?
Criterion not met

###

Tested System: Gal-1 (Homo sapiens)
Construct: made in house; host or cells: E. coli BL21(DE3)
Sequence (P09382 whole entry): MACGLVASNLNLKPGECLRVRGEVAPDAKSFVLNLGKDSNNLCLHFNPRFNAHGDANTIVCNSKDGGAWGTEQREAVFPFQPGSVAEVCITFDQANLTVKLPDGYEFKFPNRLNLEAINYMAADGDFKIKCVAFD
Method: Pull-down assay with immobilized protein and LSM libraries
Assay type: binding
Experimental Context: H14 library; 1:1 binding assumed; read-out: Surface mapping KD (apparent)
Assay Endpoint: Kd
Number first, unit second.

Entry CSCC[C@@H](CC(=O)N[C@H]1CCCC[C@@H]1C(N)=O)NC(=O)[C@H]1CCCC[C@@H]1NC(=O)[C@H]1CCCC[C@@H]1NC(=O)C[C@H](Cc1ccccc1)NC(=O)[C@H]1CCCC[C@@H]1N ; Kd = 284 µM

Entry CC(C)C[C@@H](CC(=O)N[C@H]1CCCC[C@@H]1C(=O)N[C@H]1CCCC[C@@H]1C(=O)N[C@H](CC(=O)N[C@H]1CCCC[C@@H]1C(N)=O)C(C)C)NC(=O)[C@H]1CCCC[C@@H]1N ; Kd = 68 µM

Entry CC(C)C[C@@H](CC(=O)N[C@H]1CCCC[C@@H]1C(N)=O)NC(=O)[C@H]1CCCC[C@@H]1NC(=O)[C@H]1CCCC[C@@H]1NC(=O)C[C@@H](NC(=O)[C@H]1CCCC[C@@H]1N)C(C)C ; Kd = 66 µM

Entry CC(C)C[C@@H](CC(=O)N[C@H]1CCCC[C@@H]1C(N)=O)NC(=O)[C@H]1CCCC[C@@H]1NC(=O)[C@H]1CCCC[C@@H]1NC(=O)C[C@H](CC(N)=O)NC(=O)[C@H]1CCCC[C@@H]1N ; Kd = 259 µM

Entry CC(C)C[C@@H](CC(=O)N[C@H]1CCCC[C@@H]1C(=O)N[C@H]1CCCC[C@@H]1C(=O)N[C@H](CC(=O)N[C@H]1CCCC[C@@H]1C(N)=O)Cc1ccc(O)cc1)NC(=O)[C@H]1CCCC[C@@H]1N ; Kd = 231 µM

Entry C[C@@H](CC(=O)N[C@H]1CCCC[C@@H]1C(N)=O)NC(=O)[C@H]1CCCC[C@@H]1NC(=O)[C@H]1CCCC[C@@H]1NC(=O)C[C@H](Cc1ccc(O)cc1)NC(=O)[C@H]1CCCC[C@@H]1N ; Kd = 342 µM

Entry CC(C)C[C@@H](CC(=O)N[C@H]1CCCC[C@@H]1C(N)=O)NC(=O)[C@H]1CCCC[C@@H]1NC(=O)[C@H]1CCCC[C@@H]1NC(=O)C[C@H](C)NC(=O)[C@H]1CCCC[C@@H]1N ; Kd = 127 µM
